target: hPXR (Homo sapiens (Human)); assay: cell-based hPXR agonistic assay
Sequence (O75469 whole entry): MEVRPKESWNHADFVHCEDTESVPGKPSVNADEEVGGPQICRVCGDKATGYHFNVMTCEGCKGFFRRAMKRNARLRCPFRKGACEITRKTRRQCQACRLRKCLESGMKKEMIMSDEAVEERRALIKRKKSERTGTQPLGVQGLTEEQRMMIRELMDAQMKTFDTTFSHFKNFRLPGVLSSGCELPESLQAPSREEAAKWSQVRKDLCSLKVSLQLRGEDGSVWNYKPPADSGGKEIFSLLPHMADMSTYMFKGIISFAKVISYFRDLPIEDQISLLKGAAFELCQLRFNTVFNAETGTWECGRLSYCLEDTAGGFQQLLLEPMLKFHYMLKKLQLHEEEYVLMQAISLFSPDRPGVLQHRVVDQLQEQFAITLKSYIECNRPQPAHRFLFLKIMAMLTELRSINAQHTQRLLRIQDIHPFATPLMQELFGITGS
assay endpoint: EC50

Guide cases for EC50, answers given:
>  <compound>
COc1ccc(OC)c(-n2nnc(C(=O)Nc3cc(C(C)(C)C)ccc3OCC(C)(C)C)c2C)c1

>  <result>
> 30 µM

$$$$
>  <compound>
CCc1cccc(NC(=O)c2nnn(-c3cc(OC)ccc3OC)c2C)c1

>  <result>
> 30 µM

$$$$
>  <compound>
CCCCNc1cc(NC(=O)c2nnn(-c3cc(OC)ccc3OC)c2C)cc(C(C)(C)C)c1

>  <result>
> 30 µM

$$$$
>  <compound>
COc1ccc(OC)c(-n2nnc(S(=O)(=O)Nc3cccc(C(C)(C)C)c3)c2C)c1

>  <result>
0.021 µM

$$$$
>  <compound>
CCCCOc1ccc(C(C)(C)C)cc1NC(=O)c1nnn(-c2cc(C(F)(F)F)ccc2OC)c1C

>  <result>
> 30 µM

$$$$

Record EC50 per entry; entries follow.
1. CCCCOc1ccc(C(C)(C)C)cc1NC(=O)c1nnn(-c2cc(Br)ccc2OC)c1C
2. CCC(C)Oc1ccc(C(C)(C)C)cc1NC(=O)c1nnn(-c2cc(OC)ccc2OC)c1C (stereo not drawn)
3. CCC(C)Oc1ccc(C(C)(C)C)cc1NC(=O)c1nnn(-c2cc(Cl)ccc2OC)c1C (stereo not drawn)
4. COc1ccc(OC)c(-n2nnc(C(=O)Nc3cc(C(C)(C)C)ccc3OCCCCCCCCI)c2C)c1

Reply |
1. > 30 µM
2. > 30 µM
3. 0.36 µM
4. > 30 µM

Reference source for all entries: patent US20250282736A1
